Assay: M. tuberculosis growth inhibition, HTS (AID 449762);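 further: bacterial growth assessed after seven days of incubation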
Settings: M. tuberculosis H37Rv growth inhibition, 7H9 media; at 25 µM; hits give high values
Out of some 330,000 compounds screened, about 1,900 (0.58%) were called active. About 4% were inconclusive and are not listed. These entries were drawn from the full list. Potency and affinity values are given separately.
OBSERVED_PROPERTY: inhibition (%)
Report the figure in % without appending any unit label.

Reference set (4 entries):
C/C(=N/NS(=O)(=O)c1ccc(Br)cc1)c1c[nH]c2ccccc12
2.63
O=C(CCS(=O)(=O)c1ccc(Cl)cc1)N1CCN(c2ccccc2F)CC1
-3.9
Cc1cccc(NC(=O)C2Cc3ccccc3O/C2=N\O)c1 (stereo not given)
0.7
Cc1ccccc1-n1cnc2cc(NCc3cccs3)ccc21
59.7

Ask | For the compound shown here, COc1ccc(/C=C/C(=O)NC2CC3CCC2C3)cc1 (stereo not given) , give the reported inhibition.
Reply | 14.7

Ask | May I ask what inhibition has been recorded for `CS(=O)(=O)c1ccc(C(=O)Nc2cc(S(C)(=O)=O)ccc2Cl)cc1` ?
Reply | 2.11

Ask | Value lookup for inhibition; key = `Cc1ccc(S(=O)(=O)/N=C(\CN2CCOCC2)N2CCOCC2)cc1`
Reply | 2.72

Ask | Return reported inhibition; argument: `O=C(CCc1nc(-c2ccccc2Cl)no1)NC1CCCC1`
Reply | -5.48

Ask | State the recorded inhibition for this entry: `CC(C)(C)c1ccc(C(=O)NNC(=O)c2ccc(Cl)cc2)cc1`
Reply | -6.43

###

Test: M. tuberculosis growth inhibition, HTS (AID 449762);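 further: bacterial growth assessed after seven days of incubation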
Settings: M. tuberculosis H37Rv growth inhibition, 7H9 media; at 25 µM; hits give high values
Hit rate of the full screen: of about 330,000 compounds, about 1,900 (0.58%) were called active. About 4% were inconclusive and are not listed. These entries were drawn from the full list. Potency and affinity values are given separately.
OBSERVED_PROPERTY: inhibition (%)
Dear colleague, please return just the value in %, with no unit written.

Ask | Tell me the measured inhibition of CCCC(=O)N1CCCC(c2nc(-c3cccc(OC)c3)no2)C1 (centres undefined) , please.
Reply | -8.11

Ask | Need inhibition, item `O=C(Oc1ccccc1-c1nnco1)c1ccccc1`
Reply | -3.01

Ask | Name the recorded inhibition for O=C(c1cc2n(n1)C(C(F)(F)F)CC(c1ccc(F)cc1)N2)N1CCCC1 (centres undefined) .
Reply | -3.19

Ask | Which inhibition reading was recorded for the compound CC(=O)c1ccc(NC(=O)C(C)O/N=C(\N)c2ccccc2)cc1 (centres undefined) ?
Reply | 1.95

Ask | inhibition for `Cc1ccc2[nH]c3nc(N/N=C/c4cccc(O)c4)nnc3c2c1` ?
Reply | 3.58

Ask | inhibition lookup needed for `Nc1nc2ccccc2n1/N=C/c1cccnc1` , thanks.
Reply | -4.9

###

Experiment: M. tuberculosis growth inhibition, HTS (AID 449762);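 further: bacterial growth assessed after seven days of incubation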
Settings: M. tuberculosis H37Rv growth inhibition, 7H9 media; at 25 µM; hits give high values
About 1,900 (0.58%) of roughly 330,000 compounds were called active. Another 4% or so got no clear call; they are omitted. Only a sample is shown. Entries with a potency or affinity are not part of this list.
OBSERVED_PROPERTY: inhibition (%)
Field format: number, assumed %, no unit text.

Some solved cases for reference:
Cn1c(O)c(/C=C2/C=CC=N2)c(=O)[nH]c1=O
17.3
CCN(CC)CCCN=C1N[C@@H](c2cccc(F)c2)C(C(=O)OC)=C(C)N1Cc1ccccc1
-0.31
CC12CCC(C(=O)Nc3cccnc3)(CC1=O)C2(C)C (stereo unspecified)
-6.21

Next molecule, inhibition to be filled in.
Ask | Fill blank: measured inhibition of the molecule CC12CCC(C/C1=N\N=C1\NC(=O)/C(=C\c3cccc(Br)c3)S1)C2(C)C (stereo unspecified) is ____.
Reply | 21.6

Numbers sourced from PubChem BioAssay AID449762.
